Molecular target: T1, APC9141-AA
T1 chain: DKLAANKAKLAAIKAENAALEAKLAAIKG
Assay: two-hybrid library CCmax;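 further: natural log of median RNA to DNA barcode read ratio; higher means stronger binding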
Details: mean of both orientations

- Binder: "DKAAALKAKAAALKAKNAALKAENAALEG [APC3354-AA]"
  interaction score: -1.68
- Binder: "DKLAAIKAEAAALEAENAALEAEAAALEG [APC1242-AA]"
  interaction score: -1.7
- Binder: "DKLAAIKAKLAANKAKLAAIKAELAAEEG [APC1916-AA]"
  interaction score: -1.7
- Binder: "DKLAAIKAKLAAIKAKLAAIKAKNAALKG [APC1115-AA]"
  interaction score: -1.58
- Binder: "DEAAALEAKLAAEKAEAAALEAENAALEG [APC2724-AA]"
  interaction score: -3.52
- Binder: "DENAALEAKAAALKAKAAALKAELAAEEG [APC4336-AA]"
  interaction score: -2.48
- Binder: "DEAAALEAKNAALKAKNAALKAELAAEEG [APC2556-AA]"
  interaction score: -1.94
